pIC50: −log10 of the molar value.
Below are molecules with their pIC50 as measured on glutathione S-transferase (GST)-linked full-length human Syk protein (Homo sapiens).

Recorded results for 5 molecules are shown here.
C[C@H](N)[C@H](Nc1nc(Nc2cc(F)c3c(c2)c(N(C)C)nn3C)c(C(N)=O)cc1F)C1CC1 [Example 2-188]	> 8.00
CC[C@H](N)[C@H](Nc1nc(Nc2cnc(N3CCOCC3)c(F)c2)c(C(N)=O)cc1F)C1CC1 [Example 2-359]	7.00 to 7.30
CC[C@H](N)[C@H](Nc1nc(Nc2ccc3c(cnn3CC)c2)c(C(N)=O)cc1F)C1CC1 [Example 2-362]	> 8.00
COC[C@@H](Nc1nc(Nc2cc(OC)cc(OC)c2)c(C(N)=O)cc1F)[C@H](C)N [Example 2-267]	> 8.00
COCCn1ncc2c(Nc3nc(N[C@@H]4CCOC[C@@H]4N)c(F)cc3C(N)=O)cc(F)cc21 [Example 2-375]	> 8.00

Could you now consider this next molecule?
Query: Form entry - test system: glutathione S-transferase (GST)-linked full-length human Syk protein (Homo sapiens); read-out: pIC50; molecule: CC[C@H](N)[C@@H](C)Nc1nc(Nc2cc(F)cc3c2cnn3CC)c(C(N)=O)cc1F [Example 2-373]
Result: > 8.00

---

molecular target: UniProt P43405
pIC50: −log10 of the molar value.
Below: a set of entries, each annotated with reported pIC50.

CC(C)[C@@H](Nc1nc(Nc2ccc3ncccc3c2)c(C(N)=O)cc1F)[C@H](C)N	7.30 to 8.00
CC[C@H](N)[C@@H](CC)Nc1nc(Nc2cnc(C)c(C)c2)c(C(N)=O)cc1F	7.30 to 8.00
CC(C)C[C@H](CN)Nc1nc(Nc2ccc3c(c2)c(OC(F)F)nn3C)c(C(N)=O)cc1F	> 8.00
Cc1cnn(-c2cncc(Nc3nc(N[C@@H]4CCCC[C@@H]4N)c(F)cc3C(N)=O)c2)c1	> 8.00

Query: Bench note: what pIC50 did CCCC[C@@H](Nc1nc(Nc2cnc(C)c(C)c2)c(C(N)=O)cc1F)[C@H](C)N show?
Result: > 8.00

Query: What value of pIC50 has been recorded for this entry: CCOc1ncc(Nc2nc(N[C@H](C3CCC3)[C@H](C)N)c(F)cc2C(N)=O)cc1-n1cccn1
Result: 7.30 to 8.00

Query: Endpoint output: pIC50 of Cc1ncc(Nc2nc(N[C@H](c3ccc(F)cc3)[C@H](C)N)c(F)cc2C(N)=O)cc1F . Value?
Result: 7.30 to 8.00

---

Each entry below carries its reported pIC50.
target: glutathione S-transferase (GST)-linked full-length human Syk protein (Homo sapiens, UniProt P43405); construct: glutathione S-transferase (GST)-linked full-length human Syk protein; purchased Carna Biosciences; host or cells: Baculovirus expression system; test: Syk enzyme assay; type: biochemical; conditions: 0.83 nM Syk, time-resolved fluorescence; read-out: IC50 of Syk-inhibitory activity
pIC50: −log10 of the molar value.

Consider the worked cases shown below.
CC[C@H](N)[C@@H](C)Nc1nc(Nc2cnc(OC)c(-n3nccn3)c2)c(C(N)=O)cc1F	7.30 to 8.00
NC(=O)c1cc(F)c(N[C@@H]2CCOC[C@@H]2N)nc1Nc1cnc(N2CCOCC2)c(F)c1	7.00 to 7.30
COCCn1nc(OC)c2cc(Nc3nc(N[C@H](CC(C)C)[C@H](C)N)c(F)cc3C(N)=O)ccc21	> 8.00

Query: Reported pIC50 for COC[C@@H](Nc1nc(Nc2cnc(C)c(-n3nccn3)c2)c(C(N)=O)cc1F)[C@H](C)N : what is it?
Result: 7.30 to 8.00

Reference for the values: patent US9051310B2
